biological target: AF568-actin:phosphorylated (by PKA) C0-C2 (Homo sapiens); test: TR-F concentration-response assay, AF568-actin with PKA-phosphorylated C0-C2; settings: read-out: TR-F+PKA EC50; 1 μM AF568-actin, 3 μM PKA-phosphorylated C0-C2; mean ± SE
Sequence (Q14896 1-451 limits assumed): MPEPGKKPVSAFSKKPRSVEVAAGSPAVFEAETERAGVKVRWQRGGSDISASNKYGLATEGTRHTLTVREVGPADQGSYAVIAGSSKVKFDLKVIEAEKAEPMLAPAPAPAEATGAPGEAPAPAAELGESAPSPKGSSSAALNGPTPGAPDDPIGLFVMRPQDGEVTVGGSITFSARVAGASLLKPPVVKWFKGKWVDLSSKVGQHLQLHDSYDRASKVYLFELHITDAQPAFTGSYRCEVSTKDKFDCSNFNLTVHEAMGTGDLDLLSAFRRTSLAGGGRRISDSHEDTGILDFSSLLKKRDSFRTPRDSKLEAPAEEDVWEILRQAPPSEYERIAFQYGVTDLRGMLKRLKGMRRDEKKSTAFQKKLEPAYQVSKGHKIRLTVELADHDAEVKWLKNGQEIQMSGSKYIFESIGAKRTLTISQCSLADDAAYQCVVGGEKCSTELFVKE
measureName: EC50

INSERT INTO results (givensmiles, measurename, testresult) VALUES
  ('O=C(Nc1cccc(C(=O)Nc2ccc(S(=O)(=O)O)c3cc(S(=O)(=O)O)cc(S(=O)(=O)O)c23)c1)Nc1cccc(C(=O)Nc2ccc(S(=O)(=O)O)c3cc(S(=O)(=O)O)cc(S(=O)(=O)O)c23)c1', 'EC50', '17.5 µM');
